system: MDA-N; assay: NCI tumour cell line growth inhibition, 48 h
Activity calls are given as the source filed them. Cut-off read from the data, not from the text of the source: active = GI50 up to about 1.1 µM and inactive = higher.
Outcomes: true for active, false for inactive

{"columns": ["Molecule", "Label"],
 "data": [
  ["O=C1OCC2(CO1)CC1C=CC2C1 (stereo not given)", "false"],
  ["C=C1CC[C@@H](C)[C@](C)(CCc2ccoc2)C/C=C\\C=C/1C(=O)O", "false"],
  ["CO/C(N)=C(C#N)/N=C/c1cccs1", "false"],
  ["CCC(=O)N1NC(=O)C(CC)(CC)C1=O", "false"],
  ["CCOCC(=O)N[C@H]1CCc2cc(OC)c(OC)c(OC)c2-c2ccc(OC)c(=O)cc21", "true"],
  ["COc1ccc2cc(CNCCCCCCCCNCc3ccc4cc(OC)ccc4c3)ccc2c1", "false"],
  ["Clc1ccc(OCc2nnc3sc(-c4ccc(-c5ccc(Cl)cc5Cl)o4)nn23)cc1", "false"],
  ["CC(C)(C)OC(=O)NCCC1CN(C(=O)c2ccccc2)c2ccccc21 (stereo not given)", "false"],
  ["COc1c(OC)c(O)c2c(=O)c(OC)c(-c3ccc4c(c3)OCO4)oc2c1O", "false"],
  ["O=C(c1ccccn1)C1(N2CCCCC2)CCCCC1", "false"],
  ["O=C(O)c1ccc2c(c1)CC1(C2)Cc2cc3c(cc2C1=O)CCC3 (stereo not given)", "false"],
  ["CC1CNc2ccccc2N=C1NN (stereo not given)", "false"],
  ["COc1nc(-c2c[nH]c3ccccc23)cnc1N", "false"],
  ["CN(C)N1C(=O)CC2(CCN(CCCC(=O)c3ccc(F)cc3)CC2)C1=O", "false"],
  ["COc1cccc2c1C(=O)OC2c1cccc2ccccc12 (stereo not given)", "false"],
  ["CCc1cc2c(cc1CCCC(=O)O)CC1(Cc3ccc(C(=O)O)cc3C1)C2 (stereo not given)", "false"],
  ["Clc1nss/c1=N/c1nonc1-c1ccccc1", "false"],
  ["O=C(O)C(Br)C(Br)c1ccccc1[N+](=O)[O-] (stereo not given)", "false"],
  ["N#CC1(C#N)C2CCCCC23OC(=N)C1(C#N)C(c1ccco1)O3 (stereo not given)", "false"],
  ["Cc1cccc2cc3ccc4ccccc4c3cc12", "false"],
  ["Nc1ccccc1/C=C\\c1ccccc1", "false"],
  ["Nc1ncnc2c1ccn2C/C=C\\CO", "false"],
  ["CC(=O)Nc1ccc(Cc2ccc3nc(O)cc(C)c3c2)cc1", "false"],
  ["O=S(=O)(SC1=NCCN1)c1ccc2ccccc2c1", "false"],
  ["CCOP(=O)(OCC)C(C)(CC)NC(=O)C(C(F)(F)F)C(F)(F)F (stereo not given)", "false"]
]}

// provenance: ChEMBL document CHEMBL1201862
